For Vascular endothelial growth factor receptor 2 (Homo sapiens, UniProt P35968), measured IC50 is reported for the entries below.
Measurement name: IC50 (µM)

a. Cc1c(O)c(O)c2c(c1C=O)[C@@H]1O[C@H](O2)c2c(C)c(O)c(O)c(O)c2C1=O (racemic)
b. COC1OC(=O)c2c(O)c(O)c(O)c(C)c21 (racemic)
c. Cc1c(O)c(O)c(O)c2c1COC2=O
Req: Arrange items by their IC50 values in increasing order. // rank by listing labels in the order requested
Resp: a, c, b
(a: 0.32 µM, c: 5.96 µM, b: 26.4 µM)

---

Assay system: UniProt:P08069
Sequence (P08069 31-736 limits assumed): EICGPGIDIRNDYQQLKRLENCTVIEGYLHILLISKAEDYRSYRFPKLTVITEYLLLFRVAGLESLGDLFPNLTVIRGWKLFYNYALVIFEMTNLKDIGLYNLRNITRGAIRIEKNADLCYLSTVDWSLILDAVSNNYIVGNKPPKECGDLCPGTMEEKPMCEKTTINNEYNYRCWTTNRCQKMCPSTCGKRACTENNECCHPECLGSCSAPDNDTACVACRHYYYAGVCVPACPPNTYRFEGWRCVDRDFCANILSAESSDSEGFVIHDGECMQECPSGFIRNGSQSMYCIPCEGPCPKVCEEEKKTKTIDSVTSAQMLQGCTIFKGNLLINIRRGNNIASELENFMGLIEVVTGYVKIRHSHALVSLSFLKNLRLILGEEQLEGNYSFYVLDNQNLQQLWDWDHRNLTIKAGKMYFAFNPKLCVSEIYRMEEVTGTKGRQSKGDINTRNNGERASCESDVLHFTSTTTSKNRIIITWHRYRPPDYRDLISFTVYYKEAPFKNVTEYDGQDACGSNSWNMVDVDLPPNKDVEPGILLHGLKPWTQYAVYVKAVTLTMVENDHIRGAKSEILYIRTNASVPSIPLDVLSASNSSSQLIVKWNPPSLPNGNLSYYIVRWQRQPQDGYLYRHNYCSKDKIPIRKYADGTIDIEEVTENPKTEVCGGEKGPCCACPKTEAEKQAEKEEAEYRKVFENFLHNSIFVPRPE
Sequence (P08069 741-1367 limits assumed): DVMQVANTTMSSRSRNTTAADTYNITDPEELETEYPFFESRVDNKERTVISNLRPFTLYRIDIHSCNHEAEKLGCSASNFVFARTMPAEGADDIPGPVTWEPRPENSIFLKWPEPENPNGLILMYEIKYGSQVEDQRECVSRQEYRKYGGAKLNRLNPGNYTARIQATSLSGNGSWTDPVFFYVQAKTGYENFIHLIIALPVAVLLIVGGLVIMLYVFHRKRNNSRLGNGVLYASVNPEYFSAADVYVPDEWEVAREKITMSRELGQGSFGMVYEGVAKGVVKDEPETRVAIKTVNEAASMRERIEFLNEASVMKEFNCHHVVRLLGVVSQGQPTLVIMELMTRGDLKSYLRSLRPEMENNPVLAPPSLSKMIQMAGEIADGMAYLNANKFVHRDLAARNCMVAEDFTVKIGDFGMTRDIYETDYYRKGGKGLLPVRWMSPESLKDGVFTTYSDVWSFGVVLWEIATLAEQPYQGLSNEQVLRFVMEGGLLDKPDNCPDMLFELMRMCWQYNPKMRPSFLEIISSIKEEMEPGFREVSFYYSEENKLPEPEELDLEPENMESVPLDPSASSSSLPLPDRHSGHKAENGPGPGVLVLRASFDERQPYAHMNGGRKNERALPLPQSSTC
Measurement name: IC50 (nM)
# value in nM; strip the unit string

Req: What value of measured IC50 is listed for O=c1c(O)c(-c2ccc(O)c(O)c2)oc2cc(O)cc(O)c12 ?
Resp: 300

---

Assay system: Histone deacetylase 11 (Homo sapiens, UniProt Q96DB2)
Sequence (Q96DB2 whole entry): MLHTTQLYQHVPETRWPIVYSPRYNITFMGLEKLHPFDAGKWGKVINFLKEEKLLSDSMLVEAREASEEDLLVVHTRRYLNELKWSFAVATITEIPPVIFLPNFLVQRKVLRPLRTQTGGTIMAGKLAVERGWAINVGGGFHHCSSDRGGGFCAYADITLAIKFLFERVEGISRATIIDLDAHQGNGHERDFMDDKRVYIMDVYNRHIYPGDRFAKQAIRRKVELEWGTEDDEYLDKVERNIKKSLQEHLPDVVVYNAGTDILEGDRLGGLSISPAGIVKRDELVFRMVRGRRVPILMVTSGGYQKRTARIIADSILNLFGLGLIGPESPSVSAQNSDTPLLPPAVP
Assay info: Inhibition of recombinant HDAC11 (unknown origin) using Fluor-de-Lys-SIRT1 as substrate by fluorescence assay
pIC50: −log10 of the molar value.
Measurement name: pIC50

>>> df
                                   compound                              assay_system  measurement_name  result_number
0  Cc1c(O)c(O)c2c(c1C=O)[C@@H]1O[C@H](O2)c2c(C)c(O)c(O)c(O)c2C1=O (racemic)  Histone deacetylase 11 (Homo sapiens, UniProt Q96DB2)             pIC50           4.93
1  Cc1c(O)c(O)c(O)c(C=O)c1-c1cc2c(C=O)c(C)c(O)c(O)c2o1  Histone deacetylase 11 (Homo sapiens, UniProt Q96DB2)             pIC50           4.89

---

Assay system: NUAK family SNF1-like kinase 1 (Homo sapiens)
Sequence (O60285 whole entry): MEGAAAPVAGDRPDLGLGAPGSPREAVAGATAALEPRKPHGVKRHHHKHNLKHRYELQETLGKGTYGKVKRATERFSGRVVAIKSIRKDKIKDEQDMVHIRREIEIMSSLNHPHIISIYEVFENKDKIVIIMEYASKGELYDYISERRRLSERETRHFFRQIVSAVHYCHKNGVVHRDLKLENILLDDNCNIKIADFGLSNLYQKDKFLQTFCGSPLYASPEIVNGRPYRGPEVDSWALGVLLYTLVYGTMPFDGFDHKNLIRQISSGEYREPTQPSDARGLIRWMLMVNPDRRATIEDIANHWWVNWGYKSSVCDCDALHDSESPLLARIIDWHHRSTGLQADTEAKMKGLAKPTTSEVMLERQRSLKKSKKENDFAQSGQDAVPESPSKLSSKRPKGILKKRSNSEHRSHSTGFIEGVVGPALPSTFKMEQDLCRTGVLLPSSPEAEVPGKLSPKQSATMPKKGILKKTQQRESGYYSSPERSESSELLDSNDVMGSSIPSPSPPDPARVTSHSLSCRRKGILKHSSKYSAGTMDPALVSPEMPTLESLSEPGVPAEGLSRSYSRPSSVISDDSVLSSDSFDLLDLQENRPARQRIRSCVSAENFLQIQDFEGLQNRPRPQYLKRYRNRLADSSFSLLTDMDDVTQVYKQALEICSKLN
Assay info: Inhibition of ARK5 (unknown origin)
Measurement name: IC50 (µM)

>>> df
                                   compound  result_number
0  O=c1c(O)c(-c2ccc(O)c(O)c2)oc2cc(O)cc(O)c12           5.09

A. Cc1c(O)c(O)c2c(c1C=O)[C@@H]1O[C@H](O2)c2c(C)c(O)c(O)c(O)c2C1=O (racemic)
B. Cc1c(O)c(O)c(O)c2c1COC2=O
C. COC1OC(=O)c2c(O)c(O)c(O)c(C)c21 (racemic)
Req: Ranking field: IC50; order: falling. // rank by listing labels in the order requested
Resp: C, B, A
(C: 29.8 µM, B: 10 µM, A: 2.51 µM)
